settings: [M+H]+; instrument: TW; calibrated with polyalanine and drug standards
assay-metric: collision cross section (N2) (Å²)
Note: unit Å² is implicit; provide only the numeric part.

Recorded collision cross section (N2), per entry:
Cc1nc2sccn2c(=O)c1CCN1CCC(=C(c2ccc(F)cc2)c2ccc(F)cc2)CC1 | 220.7
COc1ccccc1N1CCNCC1 | 140.5
O=C(OCC(O)CO)c1ccccc1Nc1ccnc2cc(Cl)ccc12 (centres undefined) | 187.3

Could you now consider this next molecule?
*Q* I have this molecule here, Cc1cnc(C(=O)NCCc2ccc(S(=O)(=O)NC(=O)NC3CCCCC3)cc2)cn1 [GLIPIZIDE] , and I need its recorded collision cross section (N2).
*A* 196.5
